The measured values listed here are drawn from PubChem BioAssay AID1159580.

- Experiment Summary: chemical genetic growth profiling, strain panel (AID 1159580);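 also: tested at 20 µM; growth read once vehicle control cultures reached saturation at 30 °C; 1 = growth at the plate median or of vehicle wells; lower values mean less growth of the strain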
- Setup Conditions: S. cerevisiae deletion strains, growth OD, locus YNL248C, strain rpa49, stronger effect = lower value
Screen size: about 5,500 compounds; about 2,000 (36%) were called active. About 18% were inconclusive and are not listed. The list shows a part of the results.
normalized growth values for the molecules below.
Just the number, please.

Known results for molecules:
| Smiles String | normalized growth |
| --- | --- |
| OCc1ccccc1O[C@@H]1O[C@H](CO)[C@@H](O)[C@H](O)[C@H]1O | 0.986 |
| O=C(/C=C/c1ccccc1)O[C@H]1C[C@@H](O)[C@]2(O)C=CO[C@@H](O[C@@H]3O[C@H](CO)[C@@H](O)[C@H](O)[C@H]3O)[C@H]12 | 0.992 |
| Cn1cc[nH]c1=S | 0.965 |

Kindly review the next molecule as well.
Read off the recorded normalized growth for Cc1c(N(C)C)c(=O)n(-c2ccccc2)n1C
1

----------
normalized growth values for the compounds below.
- Experiment Summary: chemical genetic growth profiling, strain panel (AID 1159580);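 also: tested at 20 µM; growth read once vehicle control cultures reached saturation at 30 °C; 1 = growth at the plate median or of vehicle wells; lower values mean less growth of the strain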
- Setup Conditions: S. cerevisiae deletion strains, growth OD, locus YNR030W, strain Alg12, stronger effect = lower value
Screen size: about 5,500 compounds; about 2,000 (36%) were called active. Roughly 18% stayed inconclusive and do not appear here. Some of the results follow.
Just the number, please.

| Smiles String | normalized growth |
| --- | --- |
| COC(=O)c1c(C)[nH]c(C)c1C(C)=O | 1.04 |
| O=C(c1ccccc1)C1CCN(c2ccc(C(F)(F)F)cc2[N+](=O)[O-])CC1 | 1.04 |
| O=[N+]([O-])c1cc(C(F)(F)F)ccc1N1CCN(CCO)CC1 | 0.943 |
| COc1ccccc1C1CCN(Cc2ccc3ccccc3c2)CC1 | 0.963 |
| CN(C)/C=C(\C#N)C(=O)Nc1ccc(F)c(Cl)c1 | 1.01 |
| O=C(Nc1ccccc1C(=O)Nc1ccc(Br)cc1)c1ccccc1 | 1.02 |

Kindly review the next compound as well.
Read off the recorded normalized growth for CC(C)(C)NC(=O)N1CCN(c2nc3ccc(Cl)cc3s2)CC1
0.902

----------
normalized growth values for the molecules below.
- Experiment Summary: chemical genetic growth profiling, strain panel (AID 1159580);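 also: tested at 20 µM; growth read once vehicle control cultures reached saturation at 30 °C; 1 = growth at the plate median or of vehicle wells; lower values mean less growth of the strain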
- Setup Conditions: S. cerevisiae deletion strains, growth OD, locus YNR052C, strain pop2, stronger effect = lower value
Screen size: about 5,500 compounds; about 2,000 (36%) were called active. Another 18% or so got no clear call; they are omitted. The list shows a part of the results.
Just the number, please.

| Molecule | normalized growth |
| --- | --- |
| O=C1C[C@@H](c2ccccc2)Oc2cc(O)cc(O)c21 | 0.943 |
| COc1ccc2c(c1)OC[C@@H](Cc1ccc(OC)c(OC)c1)[C@@H]2O | 0.977 |
| COc1ccc(CC2c3cc(OC)c(OC)cc3CCN2C)cc1OC (stereo not drawn) | 0.991 |

Read off the recorded normalized growth for COc1cc(OC)c2c(c1)OC(c1ccccc1)CC2=O (stereo not drawn)
0.989

Read off the recorded normalized growth for CC(C)(C)CC(C)(C)c1ccc(OCCOCC[N+](C)(C)Cc2ccccc2)cc1
0.99

Read off the recorded normalized growth for CCCCCCCCCCCCC[N+](C)(C)Cc1ccccc1
0.0607

Read off the recorded normalized growth for NC(=O)N1c2ccccc2CC(=O)c2ccccc21
0.962

Read off the recorded normalized growth for CCOC(=O)/C=C(\C)OP(=O)(OC)OC
0.996
